details: in n-hexane, 278.15 K
observationType: solubility (mole fraction)
Respond using a number only.

So what's the measured solubility (mole fraction) for this one? O=[N+]([O-])c1ccc(Cl)c(Cl)c1
0.0293

Now for the compound whose solubility (mole fraction) we want.
Give the measured solubility (mole fraction) of O=[N+]([O-])c1cccc(Cl)c1Cl .
0.00535
